assay.metric: melting point (°C)

These solved cases illustrate the format of a correct answer.
In [3]: df
Out[3]:
                                   molecule  units_text  quantitative_result
0  Cc1cc(C(=O)Nc2ccc(/C=C/C(=O)N3CCC=C(c4ccccc4)CC3)cn2)no1 [compound 16]          °C               169.37
1  O=C1Nc2ncc(/C=C/C(=O)N3CCC=C(c4ccccc4)CC3)cc2CN2CCSCC12 (centres unmarked) [compound 49]          °C               224.06
2  O=C(/C=C/c1ccc(NC(=O)C(F)(F)F)nc1)N1CCC=C(c2ccccc2)CC1 [compound 22]          °C                  159

(a) O=C(/C=C/c1ccc(Nc2ccccc2)nc1)N1CCC=C(c2ccccc2)CC1 [compound 14]
(b) O=C1Nc2ncc(/C=C/C(=O)N3CCC=C(c4ccccc4)CC3)cc2CN2CCOCC12 (centres unmarked) [compound 46]
// query Compare reported melting point values for a and b . Which is lower? State the label of the item chosen.
// result a

----------
Assay: Cytotoxicity MTT assay
Format: cell-based, Human
Details: human, HelaM cells, read-out: HELAM (222.125) CC50
# CC50 at 72 h listing for each entry below
Report the figure in µg/mL without appending any unit label.

These solved cases illustrate the format of a correct answer.
                                   compound  quantitative_result
0  CC(C)CC(=O)Nc1ccc(/C=C/C(=O)N2CCC=C(c3ccccc3)CC2)cn1 [compound 26]                 3.77
1  CC1(C(=O)Nc2ccc(/C=C/C(=O)N3CCC=C(c4ccccc4)CC3)cn2)CC1 [compound 15]                 6.59
2  Nc1ccc(/C=C/C(=O)N2CC=C(c3ccccc3)CCC2)cn1 [compound 21]                 4.78
3  Cn1cc(C(=O)Nc2ccc(/C=C/C(=O)N3CCC=C(c4ccccc4)CC3)cn2)cn1 [compound 4]                 3.94

Kindly note the recorded CC50 at 72 h for COc1ccc(F)cc1C1=CCCN(C(=O)/C=C/c2ccc(NC(=O)c3cncc(C)c3)nc2)CC1 [compound 5] , which is 7.8
